# assayDetails: Cell viability, resazurin assay, K562
# Type: cell-based, human
# experimentalContext: human, K562 cells (doxorubicin-sensitive leukemia)
experimentalReadout: viability at 96 h, 5 mM
# do not omit the unit; it follows the number

*Q* Endpoint output: viability at 96 h, 5 mM of COc1cc(C(=O)O)ccc1O [VA, 4-hydroxy-3-methoxybenzoic acid] . Value?
*A* 82.9%

* * *

# assayDetails: Cell viability, resazurin assay, K562/Dox
# Assay type: cell-based, human
# experimentalContext: human
experimentalReadout: viability at 96 h, 5 mM
# do not omit the unit; it follows the number

*Q* Endpoint output: viability at 96 h, 5 mM of COc1cc(C(=O)O)ccc1O [VA, 4-hydroxy-3-methoxybenzoic acid] . Value?
*A* 65.5%

* * *

For each entry below, report its viability at 96 h, 10 mM value.
# assayDetails: Cell viability, resazurin assay, K562/Dox
# Type: cell-based, human
# experimentalContext: human
Hi! Could you send only the number? It should be in %, unit omitted.

*Q* Endpoint output: viability at 96 h, 10 mM of COc1cc(C(=O)O)ccc1O [VA, 4-hydroxy-3-methoxybenzoic acid] . Value?
*A* 35.9

*Q* Endpoint output: viability at 96 h, 10 mM of O=C(O)c1ccc(O)cc1 [4-HBA, 4-Hydroxybenzoic acid] . Value?
*A* 66.3
